Where do the numbers come from? From patent US11713338B2.

// reported Ratio Ramos/RPMI per item
# assay.target: integrin α4β1 (RAMOS human cells adhering to VCAM-1) (Homo sapiens, UniProt P05556+P13612)
# Construct: Ramos cells, which express integrin α4β1; host or cells: RAMOS
# Sequence (P13612 34-1032): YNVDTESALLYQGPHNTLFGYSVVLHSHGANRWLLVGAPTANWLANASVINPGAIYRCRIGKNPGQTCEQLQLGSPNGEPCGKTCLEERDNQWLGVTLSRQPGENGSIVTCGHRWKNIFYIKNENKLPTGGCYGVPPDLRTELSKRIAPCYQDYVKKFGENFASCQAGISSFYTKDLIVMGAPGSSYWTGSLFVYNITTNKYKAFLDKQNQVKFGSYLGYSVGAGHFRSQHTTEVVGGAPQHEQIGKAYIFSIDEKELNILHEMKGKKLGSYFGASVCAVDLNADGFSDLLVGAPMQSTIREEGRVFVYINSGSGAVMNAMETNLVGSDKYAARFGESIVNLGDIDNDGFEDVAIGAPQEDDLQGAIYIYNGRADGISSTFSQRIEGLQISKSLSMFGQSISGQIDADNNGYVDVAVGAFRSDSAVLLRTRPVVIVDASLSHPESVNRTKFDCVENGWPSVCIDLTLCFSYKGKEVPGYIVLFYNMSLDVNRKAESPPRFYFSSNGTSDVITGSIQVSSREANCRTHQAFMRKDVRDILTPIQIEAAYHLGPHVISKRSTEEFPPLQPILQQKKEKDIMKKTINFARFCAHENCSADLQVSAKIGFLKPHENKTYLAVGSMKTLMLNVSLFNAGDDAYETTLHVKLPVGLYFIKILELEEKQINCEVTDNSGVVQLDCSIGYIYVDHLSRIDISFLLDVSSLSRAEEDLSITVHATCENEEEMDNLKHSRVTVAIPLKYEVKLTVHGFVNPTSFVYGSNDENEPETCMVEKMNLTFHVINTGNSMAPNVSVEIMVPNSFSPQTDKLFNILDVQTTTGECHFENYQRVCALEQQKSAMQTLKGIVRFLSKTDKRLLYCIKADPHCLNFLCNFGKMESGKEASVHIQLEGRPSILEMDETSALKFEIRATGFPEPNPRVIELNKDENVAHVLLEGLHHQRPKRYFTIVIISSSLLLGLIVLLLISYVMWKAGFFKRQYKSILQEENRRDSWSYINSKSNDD
# Sequence (P05556 21-798): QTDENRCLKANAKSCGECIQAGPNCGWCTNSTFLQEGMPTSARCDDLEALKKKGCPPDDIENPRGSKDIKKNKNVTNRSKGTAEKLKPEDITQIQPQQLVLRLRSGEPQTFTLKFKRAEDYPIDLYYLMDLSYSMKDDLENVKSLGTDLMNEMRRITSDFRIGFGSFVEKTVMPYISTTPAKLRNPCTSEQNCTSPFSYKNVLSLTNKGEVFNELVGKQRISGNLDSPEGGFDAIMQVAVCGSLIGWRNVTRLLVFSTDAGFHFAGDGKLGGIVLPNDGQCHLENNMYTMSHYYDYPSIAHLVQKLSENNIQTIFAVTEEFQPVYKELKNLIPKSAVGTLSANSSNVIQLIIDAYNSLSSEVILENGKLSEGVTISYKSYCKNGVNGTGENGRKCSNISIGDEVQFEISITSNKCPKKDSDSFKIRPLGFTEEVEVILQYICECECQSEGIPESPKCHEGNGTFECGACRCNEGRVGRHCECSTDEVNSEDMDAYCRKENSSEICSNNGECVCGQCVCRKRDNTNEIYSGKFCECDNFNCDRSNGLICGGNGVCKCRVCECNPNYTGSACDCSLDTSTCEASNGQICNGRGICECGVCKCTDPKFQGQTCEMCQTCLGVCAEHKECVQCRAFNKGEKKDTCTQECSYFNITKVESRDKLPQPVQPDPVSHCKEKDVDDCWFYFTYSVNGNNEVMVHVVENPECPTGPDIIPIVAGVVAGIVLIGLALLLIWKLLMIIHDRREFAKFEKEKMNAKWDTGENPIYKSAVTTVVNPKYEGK
# assay.protocol: Integrin α4β1-VCAM cell adhesion assay (RAMOS cells)
# Format: cell-based
# condition.details: ratio of cell adhesion IC50s, Ramos α4β1/VCAM over RPMI8866 α4β7/MAdCAM
In your answer, state the number alone without any accompanying words.

# molecular.string, Ratio Ramos/RPMI
records = [
    ("CC(C)C[C@@H]1NC(=O)c2ccc(-c3ccc(N4CCN(C(=O)c5ccc(-c6ccc(C(=O)N7CCN(c8ccc(-c9ccc%10cc9CNC(=O)[C@@H]9CCCN9[C@H](C(=O)NC(C)(C)C)[C@H](C)NC(=O)[C@H]([C@@H](C)O)NC(=O)[C@H](CC(=O)O)NC(=O)[C@H](CC(C)C)NC%10=O)cc8)CC7)cc6)cc5)CC4)cc3)c(c2)CNC(=O)[C@@H]2CCCN2[C@H](C(=O)NC(C)(C)C)[C@H](C)NC(=O)[C@H]([C@@H](C)O)NC(=O)[C@H](CC(=O)O)NC1=O", 95),
]

// moving on: another record for Ratio Ramos/RPMI
In: # lookup: Ratio Ramos/RPMI of CC(C)C[C@@H]1NC(=O)C[C@H](CCCCN)N(C)C(=O)[C@H](CCCCNC(=O)CCOCCOCCOCCOCCOCCOCCOCCC(=O)NCCCC[C@@H]2NC(=O)[C@@H]3CCCN3[C@H](C(=O)NC(C)(C)C)[C@H](C)NC(=O)[C@H]([C@@H](C)O)NC(=O)[C@H](CC(=O)O)NC(=O)[C@H](CC(C)C)NC(=O)C[C@H](CCCCN)N(C)C2=O)NC(=O)[C@@H]2CCCN2[C@H](C(=O)NC(C)(C)C)[C@H](C)NC(=O)[C@H]([C@@H](C)O)NC(=O)[C@H](CC(=O)O)NC1=O
Out: 479

* * *

# assay.target: recombinant integrin α4β7 (Homo sapiens, UniProt P13612+P26010, DEL724-798)
# Construct: purchased R&D Systems 5397-A3-050
# Sequence (P26010 20-723 limits assumed, stated change not applied, one chain of several): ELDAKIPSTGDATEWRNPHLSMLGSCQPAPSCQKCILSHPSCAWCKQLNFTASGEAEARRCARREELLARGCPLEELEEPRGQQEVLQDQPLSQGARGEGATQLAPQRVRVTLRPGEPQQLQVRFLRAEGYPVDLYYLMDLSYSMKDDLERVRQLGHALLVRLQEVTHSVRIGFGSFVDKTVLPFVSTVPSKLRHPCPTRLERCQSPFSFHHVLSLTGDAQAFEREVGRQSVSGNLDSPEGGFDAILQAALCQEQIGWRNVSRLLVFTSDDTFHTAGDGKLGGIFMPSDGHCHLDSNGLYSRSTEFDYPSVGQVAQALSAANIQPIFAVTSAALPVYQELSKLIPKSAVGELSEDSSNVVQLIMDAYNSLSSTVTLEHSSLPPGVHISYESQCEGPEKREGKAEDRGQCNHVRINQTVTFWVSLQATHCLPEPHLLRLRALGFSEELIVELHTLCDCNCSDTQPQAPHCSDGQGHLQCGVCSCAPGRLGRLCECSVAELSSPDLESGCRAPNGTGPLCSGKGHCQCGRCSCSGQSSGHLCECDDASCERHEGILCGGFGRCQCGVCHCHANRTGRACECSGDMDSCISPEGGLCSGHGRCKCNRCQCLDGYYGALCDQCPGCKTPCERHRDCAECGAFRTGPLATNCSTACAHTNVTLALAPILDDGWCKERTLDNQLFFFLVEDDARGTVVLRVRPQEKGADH
# assay.protocol: Integrin α4β7—MAdCAM-1 ELISA competition assay
# Type: binding
# condition.details: read-out: ELISA a4b7 Assay IC50
Quick rule for you: IC50 under 0.08 µM gets class 1, anything else gets class 0.

Recorded results for 5 compounds are shown here.
# compound, cat
data = [
    ("C[C@@H]1NC(=O)[C@H]([C@@H](C)O)NC(=O)[C@H](CC(=O)O)NC(=O)[C@H](CC(C)(C)C)NC(=O)[C@H]2CCCCN2C(=O)[C@H](Cc2ccc(O)cc2)NC(=O)[C@@H]2CCCN2[C@@H]1C(=O)NC(C)(C)C", "class 1"),
    ("CC(C)C[C@@H]1NC(=O)C[C@H](CCCCN)NC(=O)[C@H](Cc2ccccc2-c2cc(C(F)(F)F)ccc2C(F)(F)F)NC(=O)[C@@H]2CCCN2[C@H](C(=O)NC(C)(C)C)[C@H](C)NC(=O)[C@H]([C@@H](C)O)NC(=O)[C@H](CC(=O)O)NC1=O [Compound 287]", "class 0"),
    ("CC(C)C[C@@H]1NC(=O)c2ccc(N3CCOCC3)c(c2)CNC(=O)[C@@H]2CCCN2[C@H](C(=O)NC(C)(C)C)[C@H](C)NC(=O)[C@H]([C@@H](C)O)NC(=O)[C@H](CC(=O)O)NC1=O", "class 1"),
    ("CC(C)C[C@@H]1NC(=O)C[C@H](CCCCN)NC(=O)C2(Cc3ccccc3C2)NC(=O)[C@@H]2CCCN2[C@H](C(=O)NC(C)(C)C)[C@H](C)NC(=O)[C@H]([C@@H](C)O)NC(=O)[C@H](CC(=O)O)NC1=O", "class 0"),
    ("C[C@@H]1NC(=O)[C@H]([C@@H](C)O)NC(=O)[C@H](CC(=O)O)NC(=O)[C@H](CC(C)(C)C)NC(=O)c2ccc(-c3ccnc4ccccc34)c(c2)CNC(=O)[C@@H]2CCCN2[C@@H]1C(=O)NC(C)(C)C", "class 1"),
]

As a next step, examine the compound that follows.
In: Please let me know if CC(C)C[C@@H]1NC(=O)[C@H]2CCCCN2C(=O)[C@H](Cc2ccc(-c3ccccc3)cc2)NC(=O)[C@@H]2CCCN2[C@H](C(=O)NC(C)(C)C)[C@H](C)NC(=O)[C@H]([C@@H](C)O)NC(=O)[C@H](CC(=O)O)NC1=O shows IC50 below 0.08 µM.
Out: class 1

* * *

# assay.target: recombinant integrin α4β1 (Homo sapiens, UniProt P05556+P13612)
# Construct: purchased R&D Systems 5397-A3-050
# Sequence (P13612 34-970 limits assumed): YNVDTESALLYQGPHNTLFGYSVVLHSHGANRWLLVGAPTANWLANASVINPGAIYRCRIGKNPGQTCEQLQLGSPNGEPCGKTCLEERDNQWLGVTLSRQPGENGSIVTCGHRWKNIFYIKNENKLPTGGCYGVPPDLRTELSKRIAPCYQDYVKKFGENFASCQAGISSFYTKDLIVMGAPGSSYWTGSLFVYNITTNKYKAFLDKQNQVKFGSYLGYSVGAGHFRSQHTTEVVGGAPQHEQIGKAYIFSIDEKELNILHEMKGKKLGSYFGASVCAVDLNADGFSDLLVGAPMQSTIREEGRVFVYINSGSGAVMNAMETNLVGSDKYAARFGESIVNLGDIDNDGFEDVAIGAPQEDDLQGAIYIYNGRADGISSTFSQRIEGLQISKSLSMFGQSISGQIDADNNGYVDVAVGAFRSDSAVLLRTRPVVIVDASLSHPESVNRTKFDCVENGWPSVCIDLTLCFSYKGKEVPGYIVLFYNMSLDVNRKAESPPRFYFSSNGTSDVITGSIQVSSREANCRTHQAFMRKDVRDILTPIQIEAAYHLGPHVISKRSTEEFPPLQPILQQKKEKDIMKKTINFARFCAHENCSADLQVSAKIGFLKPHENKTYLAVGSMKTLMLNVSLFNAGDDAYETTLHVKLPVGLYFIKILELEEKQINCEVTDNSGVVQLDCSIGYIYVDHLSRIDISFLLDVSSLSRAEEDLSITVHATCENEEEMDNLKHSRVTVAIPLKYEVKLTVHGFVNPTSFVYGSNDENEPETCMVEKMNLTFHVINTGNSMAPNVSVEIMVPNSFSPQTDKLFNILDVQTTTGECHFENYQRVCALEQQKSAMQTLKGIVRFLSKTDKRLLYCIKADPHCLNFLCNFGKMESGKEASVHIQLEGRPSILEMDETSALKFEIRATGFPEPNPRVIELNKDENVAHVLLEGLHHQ
# Sequence (P05556 21-728 limits assumed): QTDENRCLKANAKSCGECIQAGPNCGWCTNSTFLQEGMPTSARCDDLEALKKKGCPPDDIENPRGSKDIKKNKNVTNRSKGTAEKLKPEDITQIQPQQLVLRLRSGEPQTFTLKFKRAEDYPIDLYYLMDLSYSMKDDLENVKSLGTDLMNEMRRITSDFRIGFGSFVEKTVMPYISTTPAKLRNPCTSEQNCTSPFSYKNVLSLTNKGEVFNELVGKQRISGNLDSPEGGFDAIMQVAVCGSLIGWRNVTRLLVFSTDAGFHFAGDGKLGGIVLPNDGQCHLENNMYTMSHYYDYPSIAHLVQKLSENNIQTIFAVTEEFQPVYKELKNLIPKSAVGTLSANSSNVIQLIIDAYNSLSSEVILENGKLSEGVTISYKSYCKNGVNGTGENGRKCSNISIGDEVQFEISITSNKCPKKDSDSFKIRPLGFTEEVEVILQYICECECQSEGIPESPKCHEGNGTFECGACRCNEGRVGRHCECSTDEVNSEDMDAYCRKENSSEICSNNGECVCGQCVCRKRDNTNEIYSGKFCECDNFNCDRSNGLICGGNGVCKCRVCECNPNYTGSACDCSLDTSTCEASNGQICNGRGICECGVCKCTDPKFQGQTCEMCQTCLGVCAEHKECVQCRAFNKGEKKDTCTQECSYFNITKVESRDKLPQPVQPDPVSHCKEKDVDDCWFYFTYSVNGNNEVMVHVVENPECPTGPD
# assay.protocol: Integrin α4β1—VCAM-1 competition ELISA
# Assay type: binding
# condition.details: read-out: ELISA a4b1 Assay IC50
# IC50 listing for each entry below
Numbers only; they are read as µM.

# compound, number
records = [
    ("CC[C@H](C)[C@@H]1NC(=O)[C@H](CC(=O)O)NC(=O)[C@H](CC(C)C)NC(=O)[C@@H](CCCCN)N(C)C(=O)[C@H](Cc2ccc(O)cc2)NC(=O)[C@@H]2CCCN2[C@H](C(=O)NC(C)(C)C)[C@H](C)NC1=O [Compound 154]", 2.66),
]

Attention now shifts to the item below.
In: Entry CC(C)C[C@@H]1NC(=O)[C@@H](CCCCN)NC(=O)[C@H](Cc2ccc(-c3ccccc3)cc2)NC(=O)[C@@H]2CCCN2[C@H](C(=O)NC(C)(C)C)[C@H](C)NC(=O)[C@H]([C@@H](C)O)NC(=O)[C@H](CC(=O)O)NC1=O [Compound 110] , system recombinant integrin α4β1 (Homo sapiens, UniProt P05556+P13612): what IC50 was measured?
Out: 3.92

* * *

List of IC50 values.
# assay.target: integrin α4β7 on α4β7+ memory T helper cells (Homo sapiens, UniProt P13612+P26010)
# Construct: endogenous in cells
# Sequence (P13612 34-1032): as the sequence (P13612 34-1032) above
# Sequence (P26010 20-798): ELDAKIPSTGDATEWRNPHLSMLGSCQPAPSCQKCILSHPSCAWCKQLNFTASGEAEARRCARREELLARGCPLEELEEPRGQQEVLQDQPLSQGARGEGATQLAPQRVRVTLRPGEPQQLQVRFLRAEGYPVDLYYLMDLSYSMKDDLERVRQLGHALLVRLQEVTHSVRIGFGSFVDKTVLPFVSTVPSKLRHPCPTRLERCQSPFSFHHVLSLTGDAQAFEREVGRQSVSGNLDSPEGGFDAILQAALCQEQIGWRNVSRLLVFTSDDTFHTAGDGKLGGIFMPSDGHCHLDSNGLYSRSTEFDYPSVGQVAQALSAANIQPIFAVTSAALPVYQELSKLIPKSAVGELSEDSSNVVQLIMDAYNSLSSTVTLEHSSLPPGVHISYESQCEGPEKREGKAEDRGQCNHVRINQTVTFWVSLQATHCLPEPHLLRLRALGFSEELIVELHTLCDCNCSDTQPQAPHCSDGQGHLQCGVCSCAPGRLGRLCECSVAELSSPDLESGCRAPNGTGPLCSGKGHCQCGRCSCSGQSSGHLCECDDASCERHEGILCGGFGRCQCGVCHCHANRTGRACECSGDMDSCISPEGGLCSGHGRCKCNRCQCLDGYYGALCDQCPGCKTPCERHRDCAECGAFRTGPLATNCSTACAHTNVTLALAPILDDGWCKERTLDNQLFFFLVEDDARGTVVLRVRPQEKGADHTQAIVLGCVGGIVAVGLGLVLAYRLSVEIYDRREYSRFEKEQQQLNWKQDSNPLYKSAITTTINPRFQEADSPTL
# assay.protocol: MAdCAM-1 competition / receptor occupancy assay in human whole blood, α4β7-positive Th memory cells
# Format: cell-based
# condition.details: human whole blood, inhibition of MAdCAM-1 binding to α4β7-positive Th memory cells, FACS; read-out: MADCAM FACS α4β7 Th mem
# Method: Analyte Competition Assay in CD4+ Integrin α4+β7-Lo Memory T Cells Receptor occupancy in primary cells was determined by measuring the amount of biotinylated human recombinant MAdCAM-1-FC or human recombinant VCAM-1-Fc bound to selected cell populations using flow cytometry. […] Receptor occupancy was calculated with the following equation: 100−((% ligand-positive cells with compound/% ligand-positive cells DMSO)*100) In Vivo T Lymphocyte Trafficking Analysis in Mouse Model of Colitis
// note: answer is a bare numeric in nM

These solved cases illustrate the format of a correct answer.
# molecular.string, IC50 / nM
measured = [
    ("CC(C)C[C@@H]1NC(=O)c2ccc(-c3ccc(N4CCN(C(=O)Cc5cccc(CC(=O)N6CCN(c7ccc(-c8ccc9cc8CNC(=O)[C@@H]8CCCN8[C@H](C(=O)NC(C)(C)C)[C@H](C)NC(=O)[C@H]([C@@H](C)O)NC(=O)[C@H](CC(=O)O)NC(=O)[C@H](CC(C)C)NC9=O)cc7)CC6)c5)CC4)cc3)c(c2)CNC(=O)[C@@H]2CCCN2[C@H](C(=O)NC(C)(C)C)[C@H](C)NC(=O)[C@H]([C@@H](C)O)NC(=O)[C@H](CC(=O)O)NC1=O", 68),
    ("CC(C)C[C@@H]1NC(=O)c2ccc(-c3ccc(N4CCN(C(=O)C56CC7CC(C5)CC(C(=O)N5CCN(c8ccc(-c9ccc%10cc9CNC(=O)[C@@H]9CCCN9[C@H](C(=O)NC(C)(C)C)[C@H](C)NC(=O)[C@H]([C@@H](C)O)NC(=O)[C@H](CC(=O)O)NC(=O)[C@H](CC(C)C)NC%10=O)cc8)CC5)(C7)C6)CC4)cc3)c(c2)CNC(=O)[C@@H]2CCCN2[C@H](C(=O)NC(C)(C)C)[C@H](C)NC(=O)[C@H]([C@@H](C)O)NC(=O)[C@H](CC(=O)O)NC1=O", 107),
    ("CC(C)C[C@@H]1NC(=O)c2ccc(-c3ccc(N4CCN(C(=O)CCOCCOCCOCCOCCOCCOCCOCCOCCOCCOCCC(=O)N5CCN(c6ccc(-c7ccc8cc7CNC(=O)[C@@H]7CCCN7[C@H](C(=O)NC(C)(C)C)[C@H](C)NC(=O)[C@H]([C@@H](C)O)NC(=O)[C@H](CC(=O)O)NC(=O)[C@H](CC(C)C)NC8=O)cc6)CC5)CC4)cc3)c(c2)CNC(=O)[C@@H]2CCCN2[C@H](C(=O)NC(C)(C)C)[C@H](C)NC(=O)[C@H]([C@@H](C)O)NC(=O)[C@H](CC(=O)O)NC1=O", 182),
    ("CC(C)C[C@@H]1NC(=O)c2ccc(-c3ccc(N4CCN(C(=O)c5ccc(-c6cccc(C(=O)N7CCN(c8ccc(-c9ccc%10cc9CNC(=O)[C@@H]9CCCN9[C@H](C(=O)NC(C)(C)C)[C@H](C)NC(=O)[C@H]([C@@H](C)O)NC(=O)[C@H](CC(=O)O)NC(=O)[C@H](CC(C)C)NC%10=O)cc8)CC7)n6)nc5)CC4)cc3)c(c2)CNC(=O)[C@@H]2CCCN2[C@H](C(=O)NC(C)(C)C)[C@H](C)NC(=O)[C@H]([C@@H](C)O)NC(=O)[C@H](CC(=O)O)NC1=O", 164),
    ("CC(C)C[C@@H]1NC(=O)c2ccc(-c3ccc(N4CCN(C(=O)C[C@H](N)C(=O)N5CCN(c6ccc(-c7ccc8cc7CNC(=O)[C@@H]7CCCN7[C@H](C(=O)NC(C)(C)C)[C@H](C)NC(=O)[C@H]([C@@H](C)O)NC(=O)[C@H](CC(=O)O)NC(=O)[C@H](CC(C)C)NC8=O)cc6)CC5)CC4)cc3)c(c2)CNC(=O)[C@@H]2CCCN2[C@H](C(=O)NC(C)(C)C)[C@H](C)NC(=O)[C@H]([C@@H](C)O)NC(=O)[C@H](CC(=O)O)NC1=O", 104),
]

In: For CC(C)C[C@@H]1NC(=O)C[C@H](CCCCN)N(C)C(=O)[C@H](CCCCNC(=O)CCCCCCCCC(=O)NCCCC[C@@H]2NC(=O)[C@@H]3CCCN3[C@H](C(=O)NC(C)(C)C)[C@H](C)NC(=O)[C@H]([C@@H](C)O)NC(=O)[C@H](CC(=O)O)NC(=O)[C@H](CC(C)C)NC(=O)C[C@H](CCCCN)N(C)C2=O)NC(=O)[C@@H]2CCCN2[C@H](C(=O)NC(C)(C)C)[C@H](C)NC(=O)[C@H]([C@@H](C)O)NC(=O)[C@H](CC(=O)O)NC1=O , what is its reported IC50?
Out: 33
